Reference source: paper PMC6320938

Assay: in vivo
Conditions: rat, in vivo, po, 3.75 g/kg, AUC0–∞
recordedMetric: AUC(0-inf) (ng·h/mL)
Quick reminder: number only, in ng·h/mL, skip the unit.

[ask] For C=C1CCC[C@]2(C)C[C@]3(O)OC(=O)C(C)=C3C[C@@H]12 [Atractylenolide III] , what is its reported AUC(0-inf)?
[reply] 233

* * *

Assay: in vivo
Conditions: rat, in vivo, po, 3.75 g/kg, AUC0–∞, Table 6, rat plasma, oral raw Atractylodis Rhizoma 3.75 g/kg
recordedMetric: AUC(0-inf) (ng·h/mL)
Quick reminder: number only, in ng·h/mL, skip the unit.

[ask] For CC(C)(OC1OC(CO)C(O)C(O)C1O)C1CCC(O)(CO)C2CC(=O)C(C)(O)C2C1 (stereo not shown) [Atractyloside A] , what is its reported AUC(0-inf)?
[reply] 167
